target: T1, UbcH5B S22R C85K-Ub (stable conjugate) (UniProt P62837 1-147; P0CG48 1-76, S22R | C85K, stably conjugated to Ub (C85K-Ub)); assay: SPR; Biacore T200, CM-5 chip, 25°C; GST-tagged E3 captured on anti-GST (1,000-2,000 RU); analyte in 25 mM Tris-HCl pH 7.6, 150 mM NaCl, 0.1 mg/ml BSA, 1 mM DTT, 0.005% Tween-20; steady-state affinity; GST alone subtracted; conditions: both partners purified
T1 construct: UbcH5B with S22R and C85K; ubiquitin; mimic of UbcH5B~Ub; also called UbcH5B C85K S22R–Ub; source: made from purified Arabidopsis Uba1, UbcH5B C85K S22R and His-GST-Ub; purified (Ni2+ agarose, TEV cleavage, Source 15S, Superdex 75)
pKd: −log10 of the molar value.

binder	pKd
GST-tagged RING domain of XIAP (XR, residues 434-C) (domain or fragment, UniProt P98170 434-497, looked up, XIAP RING domain, residues 434 to the C terminus; also called GST-XR; HisGST-XR; source: E. coli BL21(λDE3) GOLD, purified (glutathione agarose); not shown: His tag, N-terminal, kept) EISTEEQLRRLQEEKLCKICMDRNIAIVFVPCGHLVTCKQCAEAVDKCPMCYTVITFKQKIFMS	4.91
